The reported measurements were obtained from the supplement of paper PMC11908140.

I'd appreciate it if you could supply 8OG:A repair function score values for the items below.
B1: library; numbered along this chain (parent)
chain: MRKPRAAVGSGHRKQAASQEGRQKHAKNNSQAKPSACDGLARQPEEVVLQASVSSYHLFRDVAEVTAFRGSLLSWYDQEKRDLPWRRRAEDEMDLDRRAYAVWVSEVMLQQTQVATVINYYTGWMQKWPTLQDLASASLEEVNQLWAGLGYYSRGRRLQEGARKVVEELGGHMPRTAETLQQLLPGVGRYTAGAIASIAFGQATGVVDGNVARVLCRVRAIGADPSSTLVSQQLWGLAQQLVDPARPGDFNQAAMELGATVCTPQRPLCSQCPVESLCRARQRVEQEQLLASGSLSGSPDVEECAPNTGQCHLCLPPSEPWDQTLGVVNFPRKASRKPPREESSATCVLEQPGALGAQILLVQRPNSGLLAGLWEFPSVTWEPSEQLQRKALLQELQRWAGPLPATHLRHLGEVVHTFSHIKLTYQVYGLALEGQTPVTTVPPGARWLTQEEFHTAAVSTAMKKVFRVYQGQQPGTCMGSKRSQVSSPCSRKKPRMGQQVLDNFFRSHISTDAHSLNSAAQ

variants of: B1; assay: 8OG:A repair function score (normalized; synonymous = 0, nonsense = -1) (normalized log-likelihood score); higher = more repair activity (WT-like); conditions: with 8OG:A DNA repair reporter (GFP) in HEK-293 MUTYH KO cells;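 further: cells sorted at 72 h after reporter transfection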
One number for each entry.

Worked set:
>  <mutation_label>
A41Y

>  <value_observed>
-0.107

$$$$
>  <mutation_label>
L183D

>  <value_observed>
-0.21

$$$$
>  <mutation_label>
R60E

>  <value_observed>
-0.127

$$$$

Please state, for each entry, its recorded 8OG:A repair function score.
1. Y121S
2. A162F
3. W321L
4. F466N

1: -0.866; 2: -1.26; 3: -0.0977; 4: -0.0913

Respectfully, I request 8OG:A repair function score for each entry included below.
1. A41C
2. R279N
3. R491F
4. E382D
5. P44F
6. S197F
7. L430E

-0.0569
-0.123
0.0113
-0.0303
-0.202
-0.956
-0.36

Quick batch: 8OG:A repair function score for everything below.
1. A259I
2. S294K
3. A223L

1. -0.953
2. -0.0502
3. -0.498

Please state 8OG:A repair function score for every variant in the list that follows.
1. V427G
2. T511V
3. K337G
4. P352F

1. -1.03
2. -0.00751
3. -0.0801
4. -0.188
